The measurements presented in this section are drawn from PubChem BioAssay (NCI).

# Tested on: 786-0 renal
# assay_method_text: NCI tumour cell line growth inhibition, 48 h
result_type: TGI (µM)
Please reply with the bare figure in µM and do not write the unit itself.

O=C(O)c1nc2cc(C(F)(F)F)ccc2nc1Nc1ccc(F)cc1 | 66

Let us examine a further case.
Task: Given the compound CC/C=C1/C(=O)C=C[C@@H]1C/C=C\CCCC(=O)OC , what is its reported TGI?
Output: 6.59

----------
# Test system: A549 NSCLC
# assay_method_text: NCI tumour cell line growth inhibition, 48 h; in the data active = GI50 below about 0.43 µM; inactive = the rest
Pick one: true (active), false (inactive)

Use the examples below as a reference point.
CN(C)CCN1C(=O)c2ccccc2N(C)c2ccccc21 | false
COc1ccc(-c2nc(-c3nc4ccc(OC)cc4[nH]3)c3ccccn23)cc1 | false
COc1c(C)c2c(c(O)c1C/C=C(\C)CCC(=O)O)C(=O)OC2 | true
COC(=O)c1nc(-c2ccccc2)oc1S(=O)(=O)Cc1ccccc1 | false
Nc1c(C(=O)c2cccc(-c3ccncc3)c2)cnn1-c1ccc(F)cc1F | false
CN[C@@H](C)C(=O)N[C@H](C(=O)N1CCC[C@H]1C(=O)Nc1snnc1-c1ccccc1)C1CCCCC1 | false
Fc1ccc2c(c1)C1=NN(c3ccccc3)C(F)C1CO2 (stereo not given) | false
COc1cc(/C=C/C(=O)c2cccc(Nc3nc(Nc4ccccc4)nc(Nc4ccccc4)n3)c2)cc(OC)c1OC | false

Task: Per the records of this test, what outcome belongs to CC(C)(C)OC(=O)N1CCN(CCn2cc(C(F)(F)F)c3c(Cl)ncnc32)CC1 ?
Output: false

Task: Recorded call for COc1cc(C[C@H]2c3cc(OC)c(OC)cc3CCN2C)c(Oc2cc3c(cc2OC)-c2c(OC)c(OC)cc4c2[C@H](C3)N(C)CC4)cc1OC ?
Output: false

----------
# System: PC-3 prostate
# assay_method_text: NCI tumour cell line growth inhibition, 48 h
Recorded TGI, one value per entry.

In the examples that follow, each entry is paired with its recorded TGI.
CCOC(=O)C1=C(C)OC2(O)C=CC(O)=C3C(=O)N(c4ccccc4)C(=O)C312 (stereo unspecified) | > 100 µM
CC(=O)OCC1OC(n2cnc(C(N)=S)c2N)C(OC(C)=O)C1OC(C)=O (stereo unspecified) | > 100 µM
N#Cc1c(-c2ccccc2)cc(-c2ccccc2)n(C2OC(CO)C(O)C(O)C2O)c1=S (stereo unspecified) | > 100 µM
C#Cc1c(F)ccc2cc(O)cc(-c3ncc4c(N5CC6CCC(C5)N6)nc(OC[C@@]56CCCN5C[C@H](F)C6)nc4c3F)c12 | 33.8 µM
CSc1nc(C#N)c(/N=C\N(C)C)n1C | > 100 µM

Task: Would you kindly share the measured TGI for COc1ccc(/C(COc2ccc3c(=O)cc(-c4ccccc4)oc3c2)=N\O)cc1 ?
Output: > 36.1 µM

Task: What value of TGI has been recorded for this entry: COC(=O)c1nc(-c2ccccc2)oc1S(=O)(=O)Cc1ccccc1
Output: 29.4 µM

Task: Suppose we examine the compound C=C1CCC2C3(C)COC(c4ccc(N(C)C)cc4)OC3CCC2(C)C1C/C=C1/C(=O)OCC1O (stereo unspecified) ; what TGI value has been reported?
Output: 9.83 µM

----------
# System: UO-31 renal
# assay_method_text: NCI tumour cell line growth inhibition, 48 h
Examples of compounds with documented TGI follow.

COc1cc2c(c(O)c1OC)-c1c(cc(OC)c(OC)c1OC)CC(C)C(C)C2 (stereo not given) | > 100 µM
O=S1(=O)N=C(SCc2ccccc2)N(c2ccccc2)c2ccncc21 | 46.8 µM
Cc1cc2c(cc1-c1cc3c(cc1C)C(C(C)C)=C(O)C(=O)/C3=C\Nc1c3ccccc3nc3ccccc13)/C(=C/Nc1c3ccccc3nc3ccccc13)C(=O)C(O)=C2C(C)C | 15.4 µM
C=CCN1C(=O)/C(=C/c2ccc(OC)cc2)N=C1SC/C=C/C | > 100 µM
C=C1c2ccccc2C(=O)c2c1c1c(C(=O)OC)c(O)ccc1n2Cc1ccccc1 | 1.74 µM
COC(=O)[C@@H]1CN(C(C)=O)C(=O)N1 | > 100 µM
CN(C)Nc1cc(=O)[nH]c(=O)[nH]1 | > 100 µM
Cn1c2ccccc2n2c(N=O)c(-c3ccccc3)nc12 | > 100 µM
Clc1ccc(C2SCc3nc4ccccc4n32)c(Cl)c1 (stereo not given) | 24.9 µM
O=C1c2ccccc2C(O)(O)C1(O)C1(O)C(=O)c2ccccc2C1(O)O (stereo not given) | 48.7 µM

Task: Looking for the measured TGI of C[N+](C)(C)CC(=O)N/N=C/c1oc(-c2c(O)ccc3ccccc23)c(-c2c(O)ccc3ccccc23)c1[N+](=O)[O-] , can you help?
Output: 36 µM

Task: Consider the compound shown here: O=C(O)C(SC(=S)c1ccc(C(=S)SC(C(=O)O)c2ccccc2)cc1)c1ccccc1 (stereo not given) What is its recorded TGI?
Output: > 100 µM

Task: GET /values?readout=TGI&item= COc1c(C)c2c(c(O)c1C/C=C(\C)CCC(=O)O)C(=O)OC2
Output: > 100 µM

Task: Which value of TGI has been reported for CC[C@]1(Cc2ccc(OC)c(OC)c2)C=[N+]([O-])O[C@H](OC2CCCC2(c2ccccc2)c2ccccc2)[C@@H]1OC(=O)c1ccccc1 (stereo not given in full) in the records?
Output: > 100 µM

Task: Look at this compound and give its reported TGI. COc1cc2c(cc1C)NC(=O)/C2=C/c1ccccn1
Output: > 100 µM

Task: # lookup: TGI of Cc1ccc2nc(NC(=O)C(=O)C(C#N)c3nc4ccccc4s3)sc2c1 (stereo not given)
Output: > 100 µM
